Reference source for all entries: the supplement of paper PMC9170038

- System: K4 kissing-loop RNA reporter
- Experiment description: apparent KD of K4 kissing-loop reporter; higher = weaker reporter binding
- Details: Eterna round: R107; input ligand: FMN 200 uM
Kind request: treat 700 nM as inclusive, so apparent KD of K4 kissing-loop reporter at 700 nM or higher is class 1, anything lower is class 0.

Chain	Qualitative label
AGAUCUGUAACAGAUACCAGAGGACGAUGAUCGGAUAGUGAUGUUAUCUAUCAGUCGUCGCUCCCUUGGCAGCUGUUACAGAUCA [Omei KL Theo B SS B v2]	class 1
AGUAGUUGGACGGCCGCCACUAGAACGGCUUUGCCAAAGGCAGAGCACUAGAGUGAUGUUCUAGCUAGGACCGGGUCCAACUACA [Omei KL Tryp B SS A v3]	class 0
GACGGGUUCCUGCUCAAUCCGUCGCAUGAUCGAGGACCGGUACGGCCGCCACUCGAGGCCAUGCCGUACGAGUGAUGUUCGUGCG [Xeon]	class 0
AAACGUUGGUGCGAUACCAGCUGAUCGGAAACGAUCUUGCUGGAGUGAUGUUCCAAGUAAAGCCCUUGGCAGCGCACCGACGAAA [MAT - Same State Theophlline B - Mod of Eli - D22]	class 0
UCUUGAGUAUAUGAUACCAGCAGUGAGAGACAGGAAGUAUAGUGAUGUUAUAUGAGAGAAUGCCCUUGGCAGCGUGUGCGGUGGG [SSTheophylB.S]	class 0
AAACUUGCAGUGAUGUUGCAAGUAGGUGAUACCAGCAUCGAAAGAUGCCCUUGGCAGCACCAUCUUGCAACAAAGGUGCUGCCAA [(H1)-(H2)-(T1)-(T2)-(H)'-(T)'_Design7]	class 0

====

- System: K4 kissing-loop RNA reporter
- Experiment description: apparent KD of K4 kissing-loop reporter; higher = weaker reporter binding
- Details: Eterna round: R107; input ligand: tryptophan 2.4 mM

Chain	apparent KD of K4 kissing-loop reporter [nM]
UAGUAUAAUCUGUCGUUUACAAUAUUUAGUCAGGAUAUCGUAUAUUCGAGAAGGGACACUAUCUAGUGAUGUUAGAUAUUUCUUU [JR_ExcFMNA_Sub013]	52.8
AUUUAAUGUAUAGAUUAUAUACAUUAUUCAGAGGAUAUGCAUUGAAGCAGAAGGCUGGGUGUAGUGAUGUUGCAAUUUUAAUUUA [whbob_SS_FMNA__2th172]	84.1
GCCGUACGCAUGGAUACCAGUUGCGAAGUGAUGUUUCGGGCGAUCAAAGGAUCGCCCUACAACCCUUGGCAGCCAUGCGUACGGC	120
AGGGAUGAUGGAUAAAUAAACAAAGGAGAUACCAGUCAAAUAAUAGGCCCUUGGCAGCUUCAGAUCAGUGAUGUUGAAGAUAUUG [#09 K4 Theophylline A Same State]	110
UUUAUAUUGUCGGCCGCCACUGGAUUAAUAUUUGUAUAAUCUAGUUCAAAGUGAUGUUUUGAGUCCAGGACCGGGACAUUUGAUA [JR_Nu_ExcTryptoB_Sub029]	491
AGAGUUAUGCGAGGAUAUGCGGUUAGUACUCAAAGAGUACUAACGCAGAGUGAUGUUCUGUGAAACGCAGAAGGUGCAUAACUCA [Omei KL FMN B SS B v3]	229

====

- System: MS2 coat protein
- Experiment description: apparent KD of MS2 coat protein, switch OFF state (with FMN for OFF switches, without FMN for ON switches); designed switch direction (-1 OFF switch, 1 ON switch): -1; higher = weaker reporter binding
- Details: FMN input: 0 or 200 uM; Eterna round: R93 (includes R88 designs)
Overview of recorded apparent KD of MS2 coat protein for various sequences
Reported metric: apparent KD of MS2 coat protein

Chain	Data value
CGAAUGUAAGGAUAUAGCCACAUUACGAAUAAGUAGUGUGGCUAGAAGGUACAUGAGGAUCACCCAUGUAUGGG [Exclusion 4.5 (AU closing FMN)]	51.7 nM
AAAAAGUGAGGAUAUACAUGAGGAUCACCCAUGUAAUAAAAAAAAAGGGUGGAAGAAAGUAGAAGGCACCAAAA [Ex 3 May 48]	142 nM
AGAAAACAUGAGGAUCACCCAUGUCAGGAUAUGUAAAAGAAAAGAAAAGAAAGAAGAAACAGAAGGGACAAGAA [Seth-Peribsen]	53.7 nM
AAAAAACAUGAGGAUCACCCAUGUCAGGAUAUCAUAAAAAAAAAAAAAAAAAAAAAAGUGAGAAGGGACAAAAA [exclusion1-cac1]	32.7 nM
CUCUAGUCAGGAUAUCGAAGAAAAGAAGAGAAAGAAAAGAACGAGAAGGGACAUGAGGAUCACCCAUGUAAGAA [EteRNA is fun!]	39.2 nM
AAAACGGUAGGAUAUACGAUUUGGAACUAAACCGAGGAACCACAUGAGGAUCACCCAUGUAGAAGGGCCAAAAA [Mat - Exclusion 2 - JL mod - D81]	14.7 nM
CUCAUGUGAGGAUAUCAGUAGUAAAAAAAUAAAAUUACUACUGAGAAGGCACAUGAGGAUCACCCAUGUGAAAA [EX4 339: Super Stable 39]	16.1 nM
UGUGAACAUGAGGAUCACCCAUGUGAGGAUAUACGAGCGUGAGAAAGAUAAAACGAGCGUAGAAGGCACAAGAA [JR_Exclusion1_Sub5]	57.5 nM
AGUAUGCGAGGAUAUACAUGAGGAUCACCCAUGUGAGAGAUAAGUGUGAGAAAGACAAGUAGAAGGCGCGUACA [JL Lego Mod 27]	331 nM
GUGUACAGAGGAUAUACAUAAGCUAGGAAACUAGCAAGAUCACAUGAGGAUCACCCAUGUAGAAGGCUGUACAC [Ex2: 739]	327 nM
AGGAAACAUGAGGAUCACCCAUGUGAGGAUAUAUGAAAGAAAAGAAAAGAAAGAAGAAGUAGAAGGCACAAGAA [Djer]	23.2 nM
AGGGAGUGAGGAUAUACGAAAAAAAAAGAAGGAAAAAAAGAGUAGAAGGCACAUGAGGAUCACCCAUGUAAGAA [milkweed 13]	26 nM
AAAAAGGGAGGAUAUACAUGAGGAUCACCCAUGUGUCAGACGAAAAAGAGUCUGAAGUGUAGAAGGCCCAAAAA [65%, Moding Exclusion3-cac2, 1]	40.7 nM

====

- Test system: MS2 coat protein
- Experiment description: apparent KD of MS2 coat protein; designed switch direction (-1 OFF switch, 1 ON switch): 1; higher = weaker reporter binding
- Details: input ligand: FMN 200 uM

Chain	apparent KD of MS2 coat protein, nM
GUUACAUGAGGAUCACCCAUGUAUGUGUGGGAGUAAGUGUCUUAGGAUAUCUAGUAUUUGAUUUAAGAGAAGGAAGAUUGUUGU [JMF's solution 60] (Eterna round: R96, puzzle: Same State NG 3)	121
ACAUGAGACUUAGGAUAUGUUGUACCUACAUGUGACAUGAGGAUCACCCAUGUGGUAAGUAUGAUACAGAAGGAAGAGAUAUGU [Equivalance 66 - Jieux - Same State NG 2] (Eterna round: R96, puzzle: Same State NG 2)	17.2
CUGACUUGUCAAGGAUAUCACGUCGAUUAGACGUGAGAAGGUGAUCUACACAUGAGGAUCACCCAUGUGUUACGUGGGAGUCAG [Brourd's SSNG1/1-A2 mod 20] (Eterna round: R96, puzzle: Same State NG 1)	34.8
GCUCGGCUGAUGGCCCACAUGAGGAUCACCCAUGUGAGUGGGCAGGAUAUCUAGAUUAAGGAUGUAGAGAAGGGCCUACCGAGC [SameState NG3 #35] (Eterna round: R96, puzzle: Same State NG 3)	443

====

Property: apparent KD of K4 kissing-loop reporter; scope: individual sequences
- System: K4 kissing-loop RNA reporter;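 note: bound reporter read as fluorescence of individual clusters on recovered sequencing chips by microscopy, with normalized cluster intensities fitted with a binding model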
- Experiment description: apparent KD of K4 kissing-loop reporter; higher = weaker reporter binding
- Details: Eterna round: R107; input ligand: tryptophan 2.4 mM
Reported metric: apparent KD of K4 kissing-loop reporter

Chain	Reported metric	Data value
UGUGUUUACCUGACUCAGUGAUGUUGAGAAGGAGCGUGCUAAAGCACAGGUAGGUCGCUCAACCUAAAUUCAGGUGAGCACUAAA	apparent KD of K4 kissing-loop reporter	257 nM
UGUGAGCUGUCGACAAAAGUCGACUAAAACGAGGAUAUGACGAAAGUCAGAAGGCGUCAAUAAUGGAGUGAUGUUCCUGCUCACU [FmnA 9 #SwitchBubble #K4Late]	apparent KD of K4 kissing-loop reporter	401 nM
UCUCGGGCCAGUGAUGUUGGCGGCUAGUGGCGAGGACCGGUACGGCCGCCACUCGGCGCAGCAGCGGAGUGAUGUUUCGUGAGUA [Same State Tryptophan A GF 17]	apparent KD of K4 kissing-loop reporter	198 nM
CCUUGAGAGUGAUGUUCUCGAGUGAAAGUCAAGGAUAUCCCGCGGUGGAGAAGGUGAUGGCGAACUUGACUGCUGUCAGUCCUAA [theeternabot_exclusion_KL_FMN_A_10]	apparent KD of K4 kissing-loop reporter	110 nM
CCCUCACGAGUGAUGUUCGUAGGGUACAGUCAGGAUAUCAUGCGGUUGAGAAGGGACAGAGAGGGCGGCGGCGGGUUGCUCAUCU [Isanausbe]	apparent KD of K4 kissing-loop reporter	215 nM
GGAGUUACCUGGGAUACCAGUCGGAGGCCCAGAGCUCGGAGUGAUGUUCUGGGAUGUUUCGGCCCUUGGCAGCUCUGGGUCUCCG [#2 Exclusion - Theophylline B Attempt #4 (HarryS)]	apparent KD of K4 kissing-loop reporter	571 nM
